Molecular target: T1, Avi/His-HuIL18BPa (recombinant human IL-18BP isoform A with Avi and poly-His tags) (human, biotinylated with BirA on the Avi tag in some assays)
T1 chain: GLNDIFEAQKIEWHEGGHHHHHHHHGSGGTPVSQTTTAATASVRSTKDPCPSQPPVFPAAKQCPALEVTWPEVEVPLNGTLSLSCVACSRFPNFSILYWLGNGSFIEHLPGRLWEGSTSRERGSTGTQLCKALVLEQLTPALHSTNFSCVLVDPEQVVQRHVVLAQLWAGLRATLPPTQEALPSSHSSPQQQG
Assay: cell-based or functional assay
// values below are reported EC50 of IFNγ release, human PBMC

# BINDER, VALUE UNIT, EC50 of IFNγ release, human PBMC
records = [
    ("anti-IL18BP antibody BP-01 (antibody, human IgG1, V domains shown) VH: QVQLQQSGPEVVRPGVSVKISCKGSGYTFTDFAMYWVKQSHAKSLEWIGVISTDNGDTSYNQKFKGKATMTVDKSSSTAYMELDRLTSEDSAIYYCARSRGPFDYWGQGTALTVSS VL: DIVMTQSHKFKSTSVGDRVNITCKASQDVGTAVAWYQQKPGQSPKLLIYWASTRHIGVPDRFTGSGSGTDFTLTIRNVQSEDLADYFCQRYSSYPWTFGGGTKLEIK", "nM", 0.75),
    ("anti-IL18BP antibody BP-12 (antibody, human IgG1, V domains shown) VH: EVQLQQSGPELVKPGASVKMSCKTSGYTFTEYTMHWVKQSHGKSLEWIGGVNPNNGGTTYNQKFRDKATLTVDKSSSTTYMEVRTLTSDDSAVYYCAPLWRVFDYWGQGTTLTVSS VL: DIVMTQSHKFMSSSVGDRVSITCKASQDVGTAVAWYQQKPGQSPKLLIYWASTRHTGVPDRFTGSGSGTDFTLTISNVQSEDLADYFCHQFSRYPLTFGAGTKLELK", "nM", 6.09),
    ("anti-IL18BP antibody BP-10 (antibody, human IgG1, V domains shown) VH: QVQLQQPGAERVEPGASVRLSCKTSGYTFTNYWMHWVKQRPGQGLEWIGMIHPESGSTNNNEKFKSKATLTVDKSSSTAYMQLSSLTSEDSAVYYCARWDRGYFDYWGQGTTLTVSS VL: DIVMTQSHKFMSTSVGDRVSITCKASQDVRSTVGWYQQRPGQSPKLLIYWTSTRHTGVPDRFTGSGSGTDYTLTISSVQAEDLALYYCQQHYSTPYTFGGGTTLEIK", "nM", 2.05),
    ("anti-IL18BP antibody BP-04 (antibody, V domains shown, also called BP-04 (hybridoma); BP-04 (parental)) VH: HVHLHQSGAELVRPGVSVKISCRGSGYTFTDYDVHWVKQSHAKSLEWIGVISTYYGDVGYNQEFKGKATMTLDKSSSTSYLELARLTSEDSAIYYCARSGTYYYGTRESHALDYWGQGTSVTVSS VL: DIQMTQSPASLSVSVGETVTITCRTSDNVYSNLAWYQQKQGKSPQLLVYGAINLADGVPSRFSGSGSDTQYSLKINNLQSEDFGSYYCQHFWGNPYTFGGGTKLEIK", "nM", 0.67),
    ("anti-IL18BP antibody BP-03 (antibody, human IgG1, V domains shown) VH: EVQLQQSGPELVKPGASVKIPCKASGYTFTDYNMDWVKQSHGKSLEWIGNINTDNGGTVYNQKFKGKATLTVDQSSSTAYMELRSLTSEDTAVYYCARSDTTVVASRYYAMDYWGQGTSVTVSS VL: DIVLTQSPASLAMSLGKRATISCRASESVSIIGTNLIHWYQQKPGQPPKLLIYHASNLETGVPARFSGSGSRTDFTLTIDPVEEDDVAIYYCLQSRKIPPTFGGGTKLEIK", "nM", 1.14),
]
